test system: MCR-5 cells; test: Cytotoxicity towards MCR-5 (MRC5) cells; format: cell-based; settings: human, 10 µg/mL
Label 1 when Cytotoxicity MCR-5 cells 10 µg/mL >= 20; otherwise -1.

As a guide, the following entries are already answered.
compound="COc1ccc2cc1Oc1ccc(cc1)CC1c3cc(OC)c(OC)c(c3CCN1C)Oc1c(O)c(OC)cc3c1C(C2)NCC3 (single isomer, unassigned; (-)) [(-)-Northalrugosidine 3, (-)-northalrugosidine]" class_assignment=1
compound="COc1cc2c3c(c1OC)Oc1c(OC)c(OC)cc4c1C(Cc1ccc(O)c(c1)Oc1ccc(cc1)CC2N(C)CC3)N(C)CC4 (single isomer, unassigned; (-)) [(-)-Thalfoetidine 4, (-)-thalfoetidine]" class_assignment=1
compound="COc1cc2c(cc1OC)C(Cc1ccc(O)cc1)N(C)CC2 (single isomer, unassigned; (-)) [(-)-Armepavine 9, (-)-armepavine]" class_assignment=-1

[in] Could you please find out whether COc1cc2c(cc1OC)-c1c3c(c(OC)c4c1[C@H](C2)NCC4)OCO3 [(+)-O-Methylcassythine 7, (+)-O-methylcassythine] has Cytotoxicity MCR-5 cells 10 µg/mL that meets 20 or exceeds it?
[out] 1
